Recorded pIC50, one value per entry.
Target: recombinant human ACC2 (Homo sapiens (Human))
Test: Measurement of inhibitory activity on human ACC2 (MALDI-TOF MS, acetyl CoA to malonyl CoA conversion)
Assay type: biochemical
Conditions: Table 154
API: returns pIC50 as number; meaning -log10 of concentration in mol/L.

Completed entries (count: 8):
# input Please indicate pIC50 recorded for CCOc1nc2ccc(O[C@H]3C[C@H](OC[C@H](C)NC(C)=O)C3)c(Cl)c2s1
# output 7.70

# input # return recorded pIC50 for input CC(=O)N[C@@H](C)CO[C@H]1CC[C@H](Oc2ccc3nc(C(C)(F)F)sc3c2F)CC1
# output 7.92

# input Input CC(=O)N[C@@H](C)COc1cnc(Oc2ccc3nc(C(C)C)ncc3c2Cl)cn1 , output reported pIC50.
# output 6.46

# input Please report the measured pIC50 for CCOc1nc2cc(Cl)c(Oc3cnc(OC[C@H](C)NC(C)=O)cn3)cc2s1
# output 7.05

# input Recall and state the measured pIC50 for CC(=O)N[C@@H](C)CO[C@H]1CC[C@H](Oc2ccc3sc(C(C)C)nc3c2Cl)CC1 .
# output 5.89

# input Return reported pIC50. Input compound: CC(=O)N[C@@H](C)CO[C@H]1CC[C@H](Oc2ncc(-c3ccccc3)cc2Cl)CC1
# output 7.92

# input # return recorded pIC50 for entry CC(=O)N[C@@H](C)CO[C@H]1CC[C@H](Oc2ccc3nc(C(C)C)sc3c2C#N)CC1
# output 7.08

# input Report measured pIC50; entry is CCOc1nc2ccc(OC[C@H]3C[C@H](OC[C@H](C)NC(C)=O)C3)c(F)c2s1
# output 7.82

New cases:
# input Assign pIC50 to the following record: CCOc1nc2ccc(OC[C@H]3C[C@@H](OC[C@H](C)NC(C)=O)C3)c(F)c2s1
# output 7.38

# input Assign pIC50 to the following record: CC(=O)N[C@@H](C)COc1ccc(Oc2ccc3c(c2Cl)CCN(c2ncc(F)cn2)C3)cn1
# output 7.42

# input Please give the documented pIC50 of CCC(F)(F)c1nc2ccc(Oc3cnc(OC[C@H](C)NC(C)=O)cn3)c(Cl)c2s1
# output 7.30

----------
Target: recombinant human ACC2 (Homo sapiens (Human), UniProt O00763)
Sequence (O00763 27-2458): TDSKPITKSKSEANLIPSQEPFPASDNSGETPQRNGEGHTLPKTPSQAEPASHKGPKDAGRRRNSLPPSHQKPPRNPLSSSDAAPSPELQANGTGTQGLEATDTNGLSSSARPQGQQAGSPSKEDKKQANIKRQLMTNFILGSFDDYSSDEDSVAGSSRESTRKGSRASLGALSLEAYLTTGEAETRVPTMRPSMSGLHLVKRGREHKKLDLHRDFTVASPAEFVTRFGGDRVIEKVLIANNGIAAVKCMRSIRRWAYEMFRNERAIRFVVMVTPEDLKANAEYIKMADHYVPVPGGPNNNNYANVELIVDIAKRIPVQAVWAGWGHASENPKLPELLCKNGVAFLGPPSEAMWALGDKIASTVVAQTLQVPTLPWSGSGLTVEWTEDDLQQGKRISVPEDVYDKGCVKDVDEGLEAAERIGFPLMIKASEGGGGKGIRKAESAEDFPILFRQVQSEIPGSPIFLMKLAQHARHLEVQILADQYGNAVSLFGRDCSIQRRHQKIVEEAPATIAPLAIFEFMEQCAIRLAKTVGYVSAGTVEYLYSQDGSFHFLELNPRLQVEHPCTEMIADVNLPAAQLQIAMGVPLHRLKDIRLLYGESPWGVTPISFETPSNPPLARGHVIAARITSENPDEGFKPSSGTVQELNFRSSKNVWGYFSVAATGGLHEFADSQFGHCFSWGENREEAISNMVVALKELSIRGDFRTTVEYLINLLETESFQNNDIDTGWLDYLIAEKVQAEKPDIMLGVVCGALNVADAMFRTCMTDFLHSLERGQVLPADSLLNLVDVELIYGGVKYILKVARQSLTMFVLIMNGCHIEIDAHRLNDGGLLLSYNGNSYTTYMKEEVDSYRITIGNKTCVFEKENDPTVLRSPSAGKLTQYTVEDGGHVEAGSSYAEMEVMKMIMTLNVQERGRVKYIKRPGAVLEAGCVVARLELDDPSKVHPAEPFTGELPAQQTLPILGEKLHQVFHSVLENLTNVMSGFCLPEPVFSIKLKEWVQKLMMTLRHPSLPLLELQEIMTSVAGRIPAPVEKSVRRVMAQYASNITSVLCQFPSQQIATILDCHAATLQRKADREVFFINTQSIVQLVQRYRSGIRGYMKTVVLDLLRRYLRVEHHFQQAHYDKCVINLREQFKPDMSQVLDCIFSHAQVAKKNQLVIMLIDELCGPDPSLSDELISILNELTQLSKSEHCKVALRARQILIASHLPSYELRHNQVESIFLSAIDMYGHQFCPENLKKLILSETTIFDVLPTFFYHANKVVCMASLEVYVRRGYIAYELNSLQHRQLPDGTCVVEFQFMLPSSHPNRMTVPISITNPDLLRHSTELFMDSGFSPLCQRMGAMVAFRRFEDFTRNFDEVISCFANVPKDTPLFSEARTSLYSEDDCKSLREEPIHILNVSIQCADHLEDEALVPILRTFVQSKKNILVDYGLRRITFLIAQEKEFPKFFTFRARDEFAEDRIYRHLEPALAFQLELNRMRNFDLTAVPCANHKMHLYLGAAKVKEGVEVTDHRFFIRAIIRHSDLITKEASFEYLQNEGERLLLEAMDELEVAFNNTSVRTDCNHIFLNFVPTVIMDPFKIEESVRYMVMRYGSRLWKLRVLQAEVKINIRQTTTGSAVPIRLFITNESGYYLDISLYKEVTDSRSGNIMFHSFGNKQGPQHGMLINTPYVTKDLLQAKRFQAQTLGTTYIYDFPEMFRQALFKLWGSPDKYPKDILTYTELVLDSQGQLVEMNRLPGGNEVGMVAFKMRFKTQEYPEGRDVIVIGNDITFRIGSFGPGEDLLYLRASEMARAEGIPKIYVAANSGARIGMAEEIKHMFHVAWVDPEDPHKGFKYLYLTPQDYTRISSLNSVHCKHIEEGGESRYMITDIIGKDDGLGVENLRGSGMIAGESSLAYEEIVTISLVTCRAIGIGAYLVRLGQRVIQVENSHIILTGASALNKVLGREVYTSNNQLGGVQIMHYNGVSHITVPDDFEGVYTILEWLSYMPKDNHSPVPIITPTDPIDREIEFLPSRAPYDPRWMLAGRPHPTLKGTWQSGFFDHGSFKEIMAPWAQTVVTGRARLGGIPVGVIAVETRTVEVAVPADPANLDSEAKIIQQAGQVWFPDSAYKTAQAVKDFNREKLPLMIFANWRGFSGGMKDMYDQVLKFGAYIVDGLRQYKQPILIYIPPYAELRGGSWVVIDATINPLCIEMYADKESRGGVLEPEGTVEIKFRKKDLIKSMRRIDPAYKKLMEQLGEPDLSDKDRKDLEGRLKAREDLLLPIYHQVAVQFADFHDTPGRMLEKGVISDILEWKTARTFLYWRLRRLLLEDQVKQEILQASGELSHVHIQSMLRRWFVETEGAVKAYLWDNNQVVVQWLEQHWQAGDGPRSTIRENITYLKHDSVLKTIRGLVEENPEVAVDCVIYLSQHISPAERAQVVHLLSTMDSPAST
Assay: Measurement of inhibitory activity on human ACC2 (MALDI-TOF MS, acetyl CoA to malonyl CoA conversion)
Type: biochemical
Conditions: Tables 155-159
Measurement label: pIC50
# pIC50 = -log10(concentration in molar units)

Would you please look over these solved cases?
# input Provide the reported pIC50 (system: recombinant human ACC2 (Homo sapiens (Human), UniProt O00763)) for CC(=O)N[C@@H](C)CO[C@H]1CC[C@H](Oc2ccc3nc(OCC(C)(C)OC4CCCCO4)sc3c2F)CC1 (stereo partly drawn)
# output 6.48

# input Find the measured pIC50 of C[C@@H](CO[C@H]1CC[C@H](Oc2ncc3nc(OC4CC4)sc3c2F)CC1)NC(N)=O with recombinant human ACC2 (Homo sapiens (Human), UniProt O00763) as test system.
# output 7.42

# input Identify measured pIC50 obtained with recombinant human ACC2 (Homo sapiens (Human), UniProt O00763) for CC(=O)N[C@@H](C)CO[C@H]1C[C@H](COc2ccc3nc(Oc4ccc(F)cc4)sc3c2F)C1 .
# output 7.92

Further cases:
# input Determine reported pIC50 for CC(=O)N[C@@H](C)CO[C@H]1C[C@H](COc2ccc3nc(OC[C@H](C)F)n(C)c3n2)C1 ; test system: recombinant human ACC2 (Homo sapiens (Human), UniProt O00763).
# output 6.74

# input # lookup: recombinant human ACC2 (Homo sapiens (Human), UniProt O00763) pIC50, key = CC(=O)N[C@@H](C)CO[C@H]1CC[C@H](Oc2ccc3nc(OC(C)C)sc3c2F)CC1
# output 7.92

# input Report pIC50 under test system recombinant human ACC2 (Homo sapiens (Human), UniProt O00763) for CC(=O)N[C@@H](C)CO[C@H]1C[C@H](COc2nccc(OC3CC(F)(F)C3)c2Cl)C1 .
# output 6.45

# input Find the measured pIC50 of CC(=O)N[C@@H](C)CO[C@H]1C[C@H](COc2nccc(N3CCCC3)c2Cl)C1 with recombinant human ACC2 (Homo sapiens (Human), UniProt O00763) as test system.
# output 7.43

# input State pIC50 (recombinant human ACC2 (Homo sapiens (Human), UniProt O00763)) of CC(=O)N[C@@H](C)CO[C@H]1C[C@H](COc2c(Cl)cc3nc(C(C)C)sc3c2Cl)C1 .
# output 7.10

# input Supply pIC50 measured with recombinant human ACC2 (Homo sapiens (Human), UniProt O00763) for CCOc1nc2ccc(OC[C@H]3C[C@H](OC[C@H](C)NC(C)=O)C3)cc2s1 .
# output 7.59

# input State pIC50 (recombinant human ACC2 (Homo sapiens (Human), UniProt O00763)) of C[C@@H](CO[C@H]1CC[C@H](Oc2nc3c(F)cc(OCC(F)F)c(F)c3n2C)CC1)NC(=O)CO .
# output 7.23

# input GET pIC50 where system = recombinant human ACC2 (Homo sapiens (Human), UniProt O00763) and item = CC(=O)N[C@@H](C)CO[C@H]1C[C@H](COc2ccc3nc(OC(C)C)sc3c2F)C1
# output 7.37
